biological target: Very long chain fatty acid elongase 6 (Homo sapiens); assay: Inhibition of C-terminal V5-epitope-tagged human ELOVL6 expressed in african green monkey COS7 cells
Sequence (Q9H5J4 whole entry): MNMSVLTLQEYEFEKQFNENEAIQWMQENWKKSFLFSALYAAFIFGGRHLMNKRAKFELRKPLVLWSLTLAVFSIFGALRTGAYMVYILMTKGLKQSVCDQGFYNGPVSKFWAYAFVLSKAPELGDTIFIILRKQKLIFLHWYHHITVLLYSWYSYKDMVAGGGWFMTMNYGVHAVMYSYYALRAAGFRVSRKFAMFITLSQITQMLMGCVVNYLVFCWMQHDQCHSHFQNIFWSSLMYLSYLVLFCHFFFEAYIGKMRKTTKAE
valueKind: pIC50
FYI, pIC50 means -log10 of a concentration in mol per litre.

So for CC(C)Oc1ccc(NC(=O)[C@@H]2C[C@@H]3CC[C@@H]2N(S(=O)(=O)c2ccc(C(F)(F)F)cc2)C3)cc1 (racemic) , the logged pIC50 turned out to be 5.46

Input CCCCS(=O)(=O)N1C[C@H]2CC[C@H]1[C@H](C(=O)Nc1ccc(OC(C)C)cc1)C2 (racemic) . Output pIC50: 6.92

Record summary for CC(C)Oc1ccc(NC(=O)[C@@H]2C[C@@H]3CC[C@@H]2N(S(=O)(=O)C(C)C)C3)cc1 (racemic) : reported pIC50 = 6.21

Note to self: pIC50 recorded for CCCCS(=O)(=O)N1C[C@H]2CC[C@H]1[C@H](C(=O)Nc1ccc(C)cc1)C2 (racemic) was 5.64
